System: Salmonella typhimurium
Assay: Antibacterial activity against Salmonella Typhimurium MTCC 98 at 37 degC after 24 hrs by filter paper disk method
Format: functional, Salmonella enterica subsp. enterica serovar Typhimurium
Measured diameter of the inhibition zone (DIZ) accompanies every entry in the list below.
Give the number; mm is assumed, so skip it.

# returns recorded diameter of the inhibition zone (DIZ) (system: Salmonella typhimurium) for C=CCCCCCCCCc1ncc[nH]1
14

Also check C=CCCCCCCCCc1nc2cc(Cl)ccc2[nH]1
14

Query CCCCCC[C@@H](O)C/C=C\CCCCCCCc1nc2cc(Cl)ccc2[nH]1 next
17

Also CCCCCCCC/C=C/CCCCCCCc1nc2cc([N+](=O)[O-])ccc2[nH]1 ?
11

Follow-up item: CCCCC/C=C\CC[C@H](O)CCCCCCCc1nc2cc([N+](=O)[O-])ccc2[nH]1
13

And what about the molecule CCCCCCCC/C=C/CCCCCCCc1nc2cc(Cl)ccc2[nH]1 ?
15
